# STUDY SYSTEM: MCL-1 (Homo sapiens, UniProt Q07820)
# Sequence (Q07820 whole entry): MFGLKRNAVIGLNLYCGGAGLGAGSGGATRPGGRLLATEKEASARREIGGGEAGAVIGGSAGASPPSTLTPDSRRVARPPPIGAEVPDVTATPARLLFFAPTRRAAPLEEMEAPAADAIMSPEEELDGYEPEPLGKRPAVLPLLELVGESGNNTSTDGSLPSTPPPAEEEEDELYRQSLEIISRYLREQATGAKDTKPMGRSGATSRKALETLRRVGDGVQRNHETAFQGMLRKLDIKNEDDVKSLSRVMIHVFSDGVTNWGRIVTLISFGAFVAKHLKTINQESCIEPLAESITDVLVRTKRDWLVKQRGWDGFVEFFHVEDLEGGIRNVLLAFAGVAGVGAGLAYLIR
# MEASUREMENT NOTES: Protein-protein interaction assay MCL-1/Noxa BH3 peptide (MCL-1 assay), TR-FRET
# Type: binding
# TEST SETTINGS: MBP-MCL-1 / Noxa BH3-derived peptide, median
PROPERTY MEASURED: IC50 (nM)

Examples with answers:
# IC50 lookup, item COc1ccc2c(CCCOc3cccc4ccccc34)c(C(=O)O)n3c2c1-c1c(nn(C)c1C)COCCCC3 (racemic) [Example 349]
81.9

# IC50 lookup, item Cc1nn(C)c2c1-c1cccc3c(CCCOc4cccc5ccccc45)c(C(=O)O)n(c13)CCCCCN(C)C2
4.99

A = Cc1cc(OCCCc2c(C(=O)O)n3c4c(cccc24)-c2c(C)nn(C)c2COCCC3)cc(C)c1Cl (single isomer, unassigned; enantiomer 1) [Example 014]
B = CCCc1nn(C)c2c1-c1c(C)ccc3c(CCCOc4cccc5ccccc45)c(C(=O)O)n(c13)CCCCOC2 (single isomer, unassigned; enantiomer 2) [Example 189]
C = CN1CCN(Cc2c3c(nn2C)COCCCCn2c(C(=O)O)c(CCCOc4cccc5ccccc45)c4cccc-3c42)CC1 (racemic)
Order by IC50, ascending. Please write the labels in the order that was asked for.
A, C, B
